# Test method notes: in vitro
# Condition summary: dog, hepatocytes
Measured property: half-life at 2 h, 2 µM (min)

1) C[C@H]1CCCN(Cc2cc3c(C(F)(F)F)cn(-c4cccc([C@]5(c6nncn6C)C[C@@H](C)C5)c4)c(=O)c3[nH]2)C1 : 24.1
2) C[C@H]1CCCN(Cc2cc3c(c(C(F)(F)F)c2)CN(c2cccc([C@]4(c5nncn5C)C[C@@H](C)C4)c2)C3=O)C1 : 5.2

----------
# Test method notes: Plasma protein binding in Sprague-Dawley rat at 5 uM incubated for 5 hrs by equilibrium dialysis based LC-MS analysis
Measured property: fraction unbound at 5 h, 5 µM

1) C[C@H]1CCCN(Cc2cc3c(c(C(F)(F)F)c2)CN(c2cccc([C@]4(c5nncn5C)C[C@@H](C)C4)c2)C3=O)C1 : 0.0736
2) C[C@H]1CCCN(Cc2cc3c(C(F)(F)F)cn(-c4cccc([C@]5(c6nncn6C)C[C@@H](C)C5)c4)c(=O)c3[nH]2)C1 : 0.0419

----------
Measured Cmax at 24 h by item
# Test method notes: in vivo
# Condition summary: male, CD-1(ICR), mouse, po, 10 mg/kg
Measured property: Cmax at 24 h

1. C[C@H]1CCCN(Cc2cc3c(C(F)(F)F)cn(-c4cccc([C@]5(c6nncn6C)C[C@@H](C)C5)c4)c(=O)c3[nH]2)C1 : 480 ng/mL
2. C[C@H]1CCCN(Cc2cc3c(C4CC4)cn(-c4cccc([C@]5(c6nncn6C)C[C@@H](C)C5)c4)c(=O)c3[nH]2)C1 : 77.9 ng/mL
3. C[C@H]1CCCN(Cc2cc3c(c(C(F)(F)F)c2)CN(c2cccc([C@]4(c5nncn5C)C[C@@H](C)C4)c2)C3=O)C1 : 629 ng/mL

----------
# Test method notes: in vitro
# Condition summary: human, Caco-2
Measured property: efflux ratio at 2 h, 2 µM

1. C[C@H]1CCCN(Cc2cc3c(c(C(F)(F)F)c2)CN(c2cccc([C@]4(c5nncn5C)C[C@@H](C)C4)c2)C3=O)C1 : 18

----------
# Test method notes: in vitro
# Condition summary: rat, hepatocytes
Measured property: half-life at 2 h, 2 µM (min)

1) C[C@H]1CCCN(Cc2cc3c(c(C(F)(F)F)c2)CN(c2cccc([C@]4(c5nncn5C)C[C@@H](C)C4)c2)C3=O)C1 : 39.3
2) C[C@H]1CCCN(Cc2cc3c(C(F)(F)F)cn(-c4cccc([C@]5(c6nncn6C)C[C@@H](C)C5)c4)c(=O)c3[nH]2)C1 : 40.7

----------
# Test method notes: in vivo
# Condition summary: male, CD-1(ICR), mouse, po, 10 mg/kg
# Description: AUClast in male CD-1(ICR) mouse at 10 mg/kg, po measured after 1440 mins by LC-MS/MS analysis
Measured property: AUC(0-t) at 24 h

1) C[C@H]1CCCN(Cc2cc3c(C(F)(F)F)cn(-c4cccc([C@]5(c6nncn6C)C[C@@H](C)C5)c4)c(=O)c3[nH]2)C1 : 789 ng·h/mL
2) C[C@H]1CCCN(Cc2cc3c(c(C(F)(F)F)c2)CN(c2cccc([C@]4(c5nncn5C)C[C@@H](C)C4)c2)C3=O)C1 : 661 ng·h/mL
3) C[C@H]1CCCN(Cc2cc3c(C4CC4)cn(-c4cccc([C@]5(c6nncn6C)C[C@@H](C)C5)c4)c(=O)c3[nH]2)C1 : 243 ng·h/mL

----------
# Test method notes: Plasma protein binding in CD-1 mouse at 5 uM incubated for 5 hrs by equilibrium dialysis based LC-MS analysis
Measured property: fraction unbound at 5 h, 5 µM

1. C[C@H]1CCCN(Cc2cc3c(c(C(F)(F)F)c2)CN(c2cccc([C@]4(c5nncn5C)C[C@@H](C)C4)c2)C3=O)C1 : 0.0434
2. C[C@H]1CCCN(Cc2cc3c(C(F)(F)F)cn(-c4cccc([C@]5(c6nncn6C)C[C@@H](C)C5)c4)c(=O)c3[nH]2)C1 : 0.0217

----------
# Test method notes: Inhibition of immunosuppressive activity in PGE2-induced human T cells assessed as increase in IFNgamma production preincubated with PGE2 for 15 mins followed by compound administration for 60 mins and measured after 48 hrs of anti-human CD28 antibody by ELISA
# Condition summary: T-cell
Measured EC50 by item
Measured property: EC50

1) C[C@H]1CCCN(Cc2cc3c(C(F)(F)F)cn(-c4cccc([C@]5(c6nncn6C)C[C@@H](C)C5)c4)c(=O)c3[nH]2)C1 : 170 nM
2) C[C@H]1CCCN(Cc2cc3c(c(C(F)(F)F)c2)CN(c2cccc([C@]4(c5nncn5C)C[C@@H](C)C4)c2)C3=O)C1 : 892 nM

----------
# Test method notes: Plasma protein binding in Beagle dog at 5 uM incubated for 5 hrs by equilibrium dialysis based LC-MS analysis
Measured fraction unbound at 5 h, 5 µM by item
Measured property: fraction unbound at 5 h, 5 µM

1) C[C@H]1CCCN(Cc2cc3c(c(C(F)(F)F)c2)CN(c2cccc([C@]4(c5nncn5C)C[C@@H](C)C4)c2)C3=O)C1 : 0.078
2) C[C@H]1CCCN(Cc2cc3c(C(F)(F)F)cn(-c4cccc([C@]5(c6nncn6C)C[C@@H](C)C5)c4)c(=O)c3[nH]2)C1 : 0.0394

----------
# Test method notes: in vivo
# Condition summary: male, CD-1(ICR), mouse, po, 10 mg/kg
# Description: Half-life in male CD-1(ICR) mouse at 10 mg/kg, po measured after 1440 mins by LC-MS/MS analysis
Measured property: half-life at 24 h (h)

1) C[C@H]1CCCN(Cc2cc3c(C(F)(F)F)cn(-c4cccc([C@]5(c6nncn6C)C[C@@H](C)C5)c4)c(=O)c3[nH]2)C1 : 1.15
2) C[C@H]1CCCN(Cc2cc3c(c(C(F)(F)F)c2)CN(c2cccc([C@]4(c5nncn5C)C[C@@H](C)C4)c2)C3=O)C1 : 2.68
3) C[C@H]1CCCN(Cc2cc3c(C4CC4)cn(-c4cccc([C@]5(c6nncn6C)C[C@@H](C)C5)c4)c(=O)c3[nH]2)C1 : 2.33

----------
# Test method notes: in vivo
# Condition summary: male, CD-1(ICR), mouse, iv, 1 mg/kg
# Description: C0 in male CD-1(ICR) mouse at 1 mg/kg, iv measured after 1440 mins by LC-MS/MS analysis
Measured property: C0 at 24 h (ng/mL)

1. C[C@H]1CCCN(Cc2cc3c(C4CC4)cn(-c4cccc([C@]5(c6nncn6C)C[C@@H](C)C5)c4)c(=O)c3[nH]2)C1 : 395
2. C[C@H]1CCCN(Cc2cc3c(C(F)(F)F)cn(-c4cccc([C@]5(c6nncn6C)C[C@@H](C)C5)c4)c(=O)c3[nH]2)C1 : 406
3. C[C@H]1CCCN(Cc2cc3c(c(C(F)(F)F)c2)CN(c2cccc([C@]4(c5nncn5C)C[C@@H](C)C4)c2)C3=O)C1 : 572

----------
# Test method notes: Metabolic stability in dog hepatocytes assessed as hepatic extraction ratio at 2 uM measured up to 120 mins by LC-MS/MS analysis
Measured property: hepatic extraction ratio at 2 h, 2 µM

1. C[C@H]1CCCN(Cc2cc3c(c(C(F)(F)F)c2)CN(c2cccc([C@]4(c5nncn5C)C[C@@H](C)C4)c2)C3=O)C1 : 0.9

----------
# Test method notes: in vivo
# Condition summary: male, CD-1(ICR), mouse, po, 10 mg/kg
# Description: AUCinfinity in male CD-1(ICR) mouse at 10 mg/kg, po measured after 1440 mins by LC-MS/MS analysis
Measured AUC(0-inf) at 24 h by item
Measured property: AUC(0-inf) at 24 h (ng·h/mL)

1. C[C@H]1CCCN(Cc2cc3c(C(F)(F)F)cn(-c4cccc([C@]5(c6nncn6C)C[C@@H](C)C5)c4)c(=O)c3[nH]2)C1 : 796
2. C[C@H]1CCCN(Cc2cc3c(C4CC4)cn(-c4cccc([C@]5(c6nncn6C)C[C@@H](C)C5)c4)c(=O)c3[nH]2)C1 : 293
3. C[C@H]1CCCN(Cc2cc3c(c(C(F)(F)F)c2)CN(c2cccc([C@]4(c5nncn5C)C[C@@H](C)C4)c2)C3=O)C1 : 690

----------
# Test method notes: Protein binding in CD-1 mouse plasma assessed as unbound fraction at 5 uM incubated for 5 hrs by equilibrium dialysis based LC-MS analysis
Measured property: fraction unbound at 5 h, 5 µM

1) C[C@H]1CCCN(Cc2cc3c(C(F)(F)F)cn(-c4cccc([C@]5(c6nncn6C)C[C@@H](C)C5)c4)c(=O)c3[nH]2)C1 : 0.0217
2) C[C@H]1CCCN(Cc2cc3c(c(C(F)(F)F)c2)CN(c2cccc([C@]4(c5nncn5C)C[C@@H](C)C4)c2)C3=O)C1 : 0.0434

----------
# Test method notes: Protein binding in Sprague-Dawley rat plasma assessed as unbound fraction at 5 uM incubated for 5 hrs by equilibrium dialysis based LC-MS analysis
Measured property: fraction unbound at 5 h, 5 µM

1. C[C@H]1CCCN(Cc2cc3c(c(C(F)(F)F)c2)CN(c2cccc([C@]4(c5nncn5C)C[C@@H](C)C4)c2)C3=O)C1 : 0.0736
2. C[C@H]1CCCN(Cc2cc3c(C(F)(F)F)cn(-c4cccc([C@]5(c6nncn6C)C[C@@H](C)C5)c4)c(=O)c3[nH]2)C1 : 0.0419

----------
# Test method notes: in vivo
# Condition summary: male, CD-1(ICR), mouse, po, 10 mg/kg
# Description: MRTinfinity in male CD-1(ICR) mouse at 10 mg/kg, po measured after 1440 mins by LC-MS/MS analysis
Measured property: MRT inf at 24 h (h)

1. C[C@H]1CCCN(Cc2cc3c(C(F)(F)F)cn(-c4cccc([C@]5(c6nncn6C)C[C@@H](C)C5)c4)c(=O)c3[nH]2)C1 : 1.49
2. C[C@H]1CCCN(Cc2cc3c(C4CC4)cn(-c4cccc([C@]5(c6nncn6C)C[C@@H](C)C5)c4)c(=O)c3[nH]2)C1 : 4.22
3. C[C@H]1CCCN(Cc2cc3c(c(C(F)(F)F)c2)CN(c2cccc([C@]4(c5nncn5C)C[C@@H](C)C4)c2)C3=O)C1 : 1.72
